# ASSAY SYSTEM: HIV-1 gp120 V3 hypervariable loop (Human immunodeficiency virus type 1 group M subtype B)
# Construct: Polystyrene plates coated with recombinant gp120 and gp160, respectively; purchased American Bio-Technologies, Inc., Cambridge, Mass; host or cells: baculovirus expression system
# EXPERIMENT: biochemical
# Type: binding
# SETUP CONDITIONS: read-out: percentage of inhibition
MEASURED PARAMETER: inhibition at 50 µg/mL (%)
Answers are plain numbers, in %.

INSERT INTO results (molecule, unit_spec, numeric_value) VALUES
  ('CC1=C(CCC(=O)O)c2cc3[nH]c(cc4nc(cc5[nH]c(cc1n2)c(C(O)CO)c5C)C(C(O)CO)=C4C)c(C)c3CCC(=O)O (centres unmarked)', '%', 43.3),
  ('Nc1ccc2c(c1)Cc1cc(Br)ccc1-2', '%', 37.1),
  ('C=CC1=C(C)c2cc3[nH]c(cc4nc(cc5[nH]c(cc1n2)c(C)c5C=C)C(C)=C4CCC(=O)O)c(CCC(=O)O)c3C', '%', 55.8),
  ('Nc1ccc2c3c(cccc13)-c1ccccc1-2', '%', 27.4),
  ('O=C(O)CCC1=C(CC(=O)O)c2cc3[nH]c(cc4nc(cc5[nH]c(cc1n2)c(CC(=O)O)c5CCC(=O)O)C(CC(=O)O)=C4CCC(=O)O)c(CC(=O)O)c3CCC(=O)O', '%', 41.1),
  ('Nc1ccccc1-c1ccccc1', '%', 70.5);

Go through the items and report each one's inhibition at 50 µg/mL.
1. O=c1cc2oc3cc(O)c(O)cc3c(-c3ccccc3)c-2cc1O
2. O=C(O)C1=CC(I)=CC(=C(c2cc(I)cc(C(=O)O)c2O)c2cc(I)cc(C(=O)O)c2O)C1=O

1. 58.6
2. 74.8

---

# ASSAY SYSTEM: HIV-1 gp120 V3 hypervariable loop (Human immunodeficiency virus type 1 group M subtype B)
# Construct: Polystyrene plates coated with recombinant gp120 and gp160, respectively; purchased American Bio-Technologies, Inc., Cambridge, Mass; host or cells: baculovirus expression system
# EXPERIMENT: biochemical
# Assay type: binding
# SETUP CONDITIONS: read-out: percentage of inhibition
# Description: Wells of 96 well polystyrene plates (Immulon 2, Dynatech Laboratories, Inc., Chantilly, Va.) were coated with synthetic peptides (200 μl; 20μg/ml in 0.1 M Tris-HCl, pH 8.8) overnight at 20° C. […] The inhibitory effect of ATA and of other compounds on the reaction between antibodies with predetermined specificity and gp120 (or synthetic peptides derived from it) was determined from the formula: [formula] […]
MEASURED PARAMETER: inhibition at 50 µg/mL (%)
Give bare numbers, in %.

INSERT INTO measurements (compound, unit_spec, numeric_value) VALUES
  ('C=CC1=C(C)c2cc3[nH]c(cc4nc(cc5[nH]c(cc1n2)c(C)c5CO)C(C)=C4CCC(=O)O)c(CCC(=O)O)c3C [compound 152]', '%', 82.6);

Go through the items and report each one's inhibition at 50 µg/mL.
1. O=C(O)CNC(c1ccccc1)(c1ccccc1)c1ccccc1 [compound 108]
2. O=C(O)CC(c1ccccc1)(c1ccccc1)c1ccccc1 [compound 2]
3. O=C(O)c1ccc(-c2c3nc(c(-c4ccc(C(=O)O)cc4)c4ccc([nH]4)c(-c4ccc(C(=O)O)cc4)c4nc(c(-c5ccc(C(=O)O)cc5)c5ccc2[nH]5)C=C4)C=C3)cc1 [compound 160]

1: 33.5; 2: 27; 3: 84.3
